biological target: Granzyme B (human lymphocytes) (Homo sapiens (Human), UniProt P10144); assay: human Granzyme B biochemical assay; conditions: Granzyme B (human lymphocytes) 5 nM, substrate Ac-IETD-AFC 200 μM, Cpd incubation with enzyme 30 mins, 22° C., read time 60 mins; read-out: IC50
Sequence (P10144 21-247): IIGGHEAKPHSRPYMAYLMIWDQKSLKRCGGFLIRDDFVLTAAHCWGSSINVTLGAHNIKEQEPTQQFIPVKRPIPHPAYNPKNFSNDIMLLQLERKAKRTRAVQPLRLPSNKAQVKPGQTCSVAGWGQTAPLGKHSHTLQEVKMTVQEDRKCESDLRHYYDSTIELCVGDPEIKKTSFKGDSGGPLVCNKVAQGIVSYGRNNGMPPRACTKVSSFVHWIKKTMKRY
readout: IC50

// fetch Granzyme B (human lymphocytes) (Homo sapiens (Human), UniProt P10144) IC50 for O=C(Cc1csc2ccccc12)N[C@@H](CO)C(=O)N[C@H]1CCc2cccc3c2N(C1=O)[C@H](C(=O)NCc1c[nH]nn1)C3 [Compound C007] > 5000 nM

Let us now turn to CC[C@H](C)[C@H](NC(=O)COCCF)C(=O)N[C@H]1CCc2cccc3c2N(C1=O)[C@H](C(=O)NCc1cccnc1)C3 [Compound C122] > 5000 nM

Try CC[C@H](C)[C@H](NC(=O)c1ccc(OC)cc1)C(=O)N[C@H]1CCc2cccc3c2N(C1=O)[C@H](C(=O)NCc1c[nH]nn1)C3 [Compound C062] next. 1 to 300 nM

What about CC[C@H](C)[C@H](NC(=O)Cc1csc2ccccc12)C(=O)N[C@H]1CCc2cccc3c2N(C1=O)[C@H](C(=O)NCc1c[nH]nn1)C3 [Compound C006] ? 1 to 300 nM

Also, CC[C@H](C)[C@H](NC(C)=O)C(=O)N[C@H]1CCc2cccc3c2N(C1=O)[C@H](C(=O)NCc1c[nH]nn1)C3 [Compound C028] please. 1 to 300 nM

How about Cc1ccccc1C(=O)N[C@H](C(=O)N[C@H]1CCc2cccc3c2N(C1=O)[C@H](C(=O)NCc1c[nH]nn1)C3)C(C)C [Compound C050] ? 1 to 300 nM
